# subject-of-test: GRP78 protein (Homo sapiens)
# Sequence (P11021 19-654): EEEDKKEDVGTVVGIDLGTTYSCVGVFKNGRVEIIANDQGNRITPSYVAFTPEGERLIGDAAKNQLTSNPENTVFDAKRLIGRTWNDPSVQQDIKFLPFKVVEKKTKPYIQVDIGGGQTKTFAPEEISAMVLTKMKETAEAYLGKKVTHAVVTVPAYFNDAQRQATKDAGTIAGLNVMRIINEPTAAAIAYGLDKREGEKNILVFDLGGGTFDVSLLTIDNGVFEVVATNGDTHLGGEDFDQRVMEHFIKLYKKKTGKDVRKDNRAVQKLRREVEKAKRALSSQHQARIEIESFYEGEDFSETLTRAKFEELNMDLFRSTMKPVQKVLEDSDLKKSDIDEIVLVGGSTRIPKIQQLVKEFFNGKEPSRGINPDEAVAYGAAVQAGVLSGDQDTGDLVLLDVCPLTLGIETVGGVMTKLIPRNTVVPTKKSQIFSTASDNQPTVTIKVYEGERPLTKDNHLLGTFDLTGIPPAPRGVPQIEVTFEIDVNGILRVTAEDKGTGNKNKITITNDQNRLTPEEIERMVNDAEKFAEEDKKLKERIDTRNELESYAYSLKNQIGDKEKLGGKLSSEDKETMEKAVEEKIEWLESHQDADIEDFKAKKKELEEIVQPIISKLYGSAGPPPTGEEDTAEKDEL
pKd: −log10 of the molar value.
metric: pKd

* CC(C)[C@@H](NC(=O)[C@@H](CCCNC(=N)N)NC(=O)[C@H](NC(=O)[C@@H](CC(N)=O)NC(=O)[C@H](N)CO)[C@H](C)O)C(=O)N[C@H](C)C(=O)N1CCC[C@@H]1C(=O)O | 5.28
